Molecular target: T1, Human IL-11 (human, UniProt P20809 22-199); also: test concentration or dose not given here
T1 sequence: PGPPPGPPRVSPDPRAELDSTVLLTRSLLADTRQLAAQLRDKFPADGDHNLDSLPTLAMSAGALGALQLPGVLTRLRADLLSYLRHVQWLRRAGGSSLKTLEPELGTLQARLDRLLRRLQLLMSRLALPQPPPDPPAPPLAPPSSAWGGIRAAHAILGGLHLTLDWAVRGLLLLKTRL
Test: cell-based or functional assay
Please respond with reported MMP2 production, Experiment 1 (human atrial fibroblasts + TGFB1) for every item in the list.
Write your answer as a measured quantity: the number, then the unit.

[
  {
    "BINDER": "YU100-E05 (antibody) EVQLVQSGGGVVQPGRSLRLSCAASGFTFSSYGMHWVRQAPGKGLEWVAVISYDGSNKYYADSVKGRFTISRDNSKNTLYLQMNSLRAEDTAVYYCAKIGATDPLDYWGQGTLVTVSSGSASAPKLEEGEFSEARVQAVLTQPRSVSGSPGQSVTISCTGTSSDVGGYNYVSWYQQHPGKAPKLMIYDVSKRPSGVPDRFSGSKSGNTASLTISGLQAEDEADYYCCSYAGSYSWVFGGGTKLTVLGQPKAAPSVTLFPPSS",
    "RESULT": "56.3 ng/mL"
  },
  {
    "BINDER": "YU112-F05 (antibody) EVQLVQSGGGVVQPGRSLRLSCAASGFTFGSYGMHWVRQAPGKGLEWVAVISYDGSNKYYADSVKGRFTISRDNSKNTLYLQMNSLRAEDTAVYYCAKIGATDPLDYWGQGTLVTVSSGSASAPKLEEGEFSEARVQSALTQPRSVSGSPGQSVTISCTGTSSDVGGYNYVSWYQQHPGKAPKLIIYDVNNRPSGVSNRFSASKSGNTASLTISGLQAEDEADYYCNSYTSGSTWVFGGGTKLTVL",
    "RESULT": "53.9 ng/mL"
  }
]

Can you give me MMP2 production, Experiment 1 (human atrial fibroblasts + TGFB1) for all of these, one by one?
1. YU100-B06 (antibody) QVQLVESGGGVVQPGRSLRLSCAASGFTFSSYGMHWVRQAPGKGLEWVAVISYDGSNKYYADSVKSRFTISRDNSKNTLYLQMNSLRAEDTAVYYCAKIGATDPLDYWGQGTLVTVSSGSASAPKLEEGEFSEARVQSALTQPASVSGSPGQSITISCTGTSSDVGGYNYVSWYQQHPGKAPKLMIYDVSKRPSGVPDRFSGSKSGNTASLTISGLQAEDEADYYCNSYAGSYTWVFGGGTKLTVL
2. YU100-F11 (antibody, V domains shown, light chain-shuffled human anti-IL-11 clone) VH: QVQLVESGGGVVQPGRSLRLSCAASGFTFSSYGMHWVRQAPGKGLEWVAVISYDGSNKYYADSVKGRFTISRDNSKNTLYLQMNSLRAEDTAVYYCAKIGATDPLDYWGQGTLVTVSS VL: QSALTQPASVSGSPGQSITISCTGSSSDVAGYNYVSWYQQHPGKAPKLMIYDVTKRPSGVPDRFSGSKSGNTASLTISGLQAEDEADYYCCSYAGSYTWVFGGGTQLTVLG
3. YU100-E08 (antibody) QVQLVQSGGGVVQPGRSLRLSCAASGFTFSSYAMHWVRQAPGKGLEWVAVISYDGSNKYYADSVKGRFTISRDNSKNTLYLQMNSLRAEDTAVYYCARIMGYDYGDYDVVDYWGQGTLVTVSSGSASAPKLEEGEFSEARVQSALTQPRSVSGSPGQSVTISCTGTSSDVGGYNYVSWYQQHPGKAPKLMIYDVSRRPSGVPDRFSGSKSGNTASLTISGLQAEDEADYYCCSYAGNYTWMFGGGTKLTVL

Out:
1: 47.6 ng/mL; 2: 44.5 ng/mL; 3: 48.2 ng/mL
